System: FLEAS (Siphoneptera)
experiment-description: Comparative flea control on dogs, percent control
Assay type: in vivo
Parameters: concentration or dose not given beside the values
condition-notes: Day 9, single topical treatment
The reader will find reported Percent control fleas values listed item by item below.
Record the value in %, omitting the unit from your answer.

As a guide, the following entries are already answered.
compound: CC1(C)C(C=C(Cl)Cl)C1C(=O)OCc1cccc(Oc2ccccc2)c1 (stereo not shown)
unit-tag: %
Percent control fleas: 87.8

compound: O=[N+]([O-])N=C1NCCN1Cc1ccc(Cl)nc1
unit-tag: %
Percent control fleas: 100

compound: N#Cc1nn(-c2c(Cl)cc(C(F)(F)F)cc2Cl)c(N)c1[S+]([O-])C(F)(F)F (stereo not shown)
unit-tag: %
Percent control fleas: 100

Okay, now this compound:
Note to self: Percent control fleas recorded for `CO[C@H]1C[C@H](O[C@@H]2/C(C)=C/C[C@@H]3C[C@@H](C[C@]4(CC[C@H](C)[C@@H](C5CCCCC5)O4)O3)OC(=O)[C@@H]3C=C(C)/C(=N/O)[C@H]4OC/C(=C\C=C\[C@@H]2C)[C@]43O)O[C@@H](C)[C@@H]1O` was 100

====

The reader will find reported Percent control fleas values listed item by item below.
Test system: FLEAS (Siphoneptera)
experiment-description: Comparative flea control on dogs, percent control
Type: in vivo
Parameters: concentration or dose not given beside the values
condition-notes: Day 30, single topical treatment
Record the value in %, omitting the unit from your answer.

compound: N#Cc1nn(-c2c(Cl)cc(C(F)(F)F)cc2Cl)c(N)c1[S+]([O-])C(F)(F)F (stereo not shown) [Fipronil, fipronil]
unit-tag: %
Percent control fleas: 100
//
compound: O=[N+]([O-])N=C1NCCN1Cc1ccc(Cl)nc1 [Imidacloprid]
unit-tag: %
Percent control fleas: 99.4
//
compound: CC1(C)C(C=C(Cl)Cl)C1C(=O)OCc1cccc(Oc2ccccc2)c1 (stereo not shown) [Permethrin]
unit-tag: %
Percent control fleas: 7.7

Okay, now this compound:
Note to self: Percent control fleas recorded for CO[C@H]1C[C@H](O[C@@H]2/C(C)=C/C[C@@H]3C[C@@H](C[C@]4(CC[C@H](C)[C@@H](C5CCCCC5)O4)O3)OC(=O)[C@@H]3C=C(C)/C(=N/O)[C@H]4OC/C(=C\C=C\[C@@H]2C)[C@]43O)O[C@@H](C)[C@@H]1O [Selamectin, selamectin] was 98

====

System: R. SANGUINEUS
experiment-description: Comparative tick control on dogs, R. sanguineus, percent control
Type: in vivo, Rhipicephalus sanguineus
Parameters: concentration or dose not given beside the values
condition-notes: Study Day 14, single topical treatment
quantity-measured: Percent control R. sanguineus (%)
Record the value in %, omitting the unit from your answer.

Form: item O=[N+]([O-])N=C1NCCN1Cc1ccc(Cl)nc1 [Imidacloprid] ; test system R. SANGUINEUS; Percent control R. sanguineus: 53.5

Form: item CC1(C)C(C=C(Cl)Cl)C1C(=O)OCc1cccc(Oc2ccccc2)c1 (stereo not shown) [Permethrin] ; test system R. SANGUINEUS; Percent control R. sanguineus: 95.2

Form: item CO[C@H]1C[C@H](O[C@@H]2/C(C)=C/C[C@@H]3C[C@@H](C[C@]4(CC[C@H](C)[C@@H](C5CCCCC5)O4)O3)OC(=O)[C@@H]3C=C(C)/C(=N/O)[C@H]4OC/C(=C\C=C\[C@@H]2C)[C@]43O)O[C@@H](C)[C@@H]1O [Selamectin, selamectin] ; test system R. SANGUINEUS; Percent control R. sanguineus: 21.5

Form: item N#Cc1nn(-c2c(Cl)cc(C(F)(F)F)cc2Cl)c(N)c1[S+]([O-])C(F)(F)F (stereo not shown) [Fipronil, fipronil] ; test system R. SANGUINEUS; Percent control R. sanguineus: 99.4

====

The reader will find reported Percent control D. variabilis values listed item by item below.
System: D. VARIABILIS
experiment-description: Comparative tick control on dogs, D. variabilis, percent control
Assay type: in vivo, Dermacentor variabilis
condition-notes: Study Day 14, single topical treatment
Record the value in %, omitting the unit from your answer.

compound: CO[C@H]1C[C@H](O[C@@H]2/C(C)=C/C[C@@H]3C[C@@H](C[C@]4(CC[C@H](C)[C@@H](C5CCCCC5)O4)O3)OC(=O)[C@@H]3C=C(C)/C(=N/O)[C@H]4OC/C(=C\C=C\[C@@H]2C)[C@]43O)O[C@@H](C)[C@@H]1O
Percent control D. variabilis [%]: 16.6
--
compound: O=[N+]([O-])N=C1NCCN1Cc1ccc(Cl)nc1
Percent control D. variabilis [%]: 50.3
--
compound: N#Cc1nn(-c2c(Cl)cc(C(F)(F)F)cc2Cl)c(N)c1[S+]([O-])C(F)(F)F (stereo not shown)
Percent control D. variabilis [%]: 98.7

Okay, now this compound:
Form: item CC1(C)C(C=C(Cl)Cl)C1C(=O)OCc1cccc(Oc2ccccc2)c1 (stereo not shown) ; test system D. VARIABILIS; Percent control D. variabilis: 91.5

====

System: R. SANGUINEUS
experiment-description: Comparative tick control on dogs, R. sanguineus, percent control
Assay type: in vivo, Rhipicephalus sanguineus
Set-up: concentration or dose not given beside the values
condition-notes: Study Day 15, single topical treatment
quantity-measured: Percent control R. sanguineus (%)
Record the value in %, omitting the unit from your answer.

As a guide, the following entries are already answered.
compound: O=[N+]([O-])N=C1NCCN1Cc1ccc(Cl)nc1
unit-tag: %
Percent control R. sanguineus: 58.2

compound: CO[C@H]1C[C@H](O[C@@H]2/C(C)=C/C[C@@H]3C[C@@H](C[C@]4(CC[C@H](C)[C@@H](C5CCCCC5)O4)O3)OC(=O)[C@@H]3C=C(C)/C(=N/O)[C@H]4OC/C(=C\C=C\[C@@H]2C)[C@]43O)O[C@@H](C)[C@@H]1O
unit-tag: %
Percent control R. sanguineus: 46.0

compound: N#Cc1nn(-c2c(Cl)cc(C(F)(F)F)cc2Cl)c(N)c1[S+]([O-])C(F)(F)F (stereo not shown)
unit-tag: %
Percent control R. sanguineus: 100

Form: item CC1(C)C(C=C(Cl)Cl)C1C(=O)OCc1cccc(Oc2ccccc2)c1 (stereo not shown) ; test system R. SANGUINEUS; Percent control R. sanguineus: 98.9

====

The reader will find reported Percent control fleas values listed item by item below.
Test system: FLEAS (Siphoneptera)
experiment-description: Comparative flea control on dogs, percent control
Type: in vivo
Parameters: concentration or dose not given beside the values
condition-notes: Day 1, single topical treatment
Record the value in %, omitting the unit from your answer.

compound: O=[N+]([O-])N=C1NCCN1Cc1ccc(Cl)nc1 [Imidacloprid]
system-name: FLEAS (Siphoneptera)
unit-tag: %
numeric-value: 100

Note to self: Percent control fleas recorded for N#Cc1nn(-c2c(Cl)cc(C(F)(F)F)cc2Cl)c(N)c1[S+]([O-])C(F)(F)F (stereo not shown) [Fipronil, fipronil] was 100

Note to self: Percent control fleas recorded for CC1(C)C(C=C(Cl)Cl)C1C(=O)OCc1cccc(Oc2ccccc2)c1 (stereo not shown) [Permethrin] was 89.8

Note to self: Percent control fleas recorded for CO[C@H]1C[C@H](O[C@@H]2/C(C)=C/C[C@@H]3C[C@@H](C[C@]4(CC[C@H](C)[C@@H](C5CCCCC5)O4)O3)OC(=O)[C@@H]3C=C(C)/C(=N/O)[C@H]4OC/C(=C\C=C\[C@@H]2C)[C@]43O)O[C@@H](C)[C@@H]1O [Selamectin, selamectin] was 87.3

====

The reader will find reported Percent control D. variabilis values listed item by item below.
Test system: D. VARIABILIS
experiment-description: Comparative tick control on dogs, D. variabilis, percent control
Format: in vivo, Dermacentor variabilis
Design: concentration or dose not given beside the values
condition-notes: Study Day 15, single topical treatment
Source text: The purpose of this study was to was to determine comparative flea and tick control over a 30 day interval of a combination application of a pyrethroid and a chloronicotinyl insecticide applied dermally to dogs. This combination was compared with permethrin alone, imidacloprid alone, fipronil and selamectin. […] The dogs were bathed with a mild non-medicated shampoo and thoroughly combed to remove any existing fleas or ticks 7 to 14 days prior to treatment. […] Live fleas and ticks were counted on Day −1. […]
Record the value in %, omitting the unit from your answer.

As a guide, the following entries are already answered.
molecule: O=[N+]([O-])N=C1NCCN1Cc1ccc(Cl)nc1
system-name: D. VARIABILIS
Percent control D. variabilis [%]: 66.4
--
molecule: CC1(C)C(C=C(Cl)Cl)C1C(=O)OCc1cccc(Oc2ccccc2)c1 (stereo not shown)
system-name: D. VARIABILIS
Percent control D. variabilis [%]: 92.9
--
molecule: N#Cc1nn(-c2c(Cl)cc(C(F)(F)F)cc2Cl)c(N)c1[S+]([O-])C(F)(F)F (stereo not shown)
system-name: D. VARIABILIS
Percent control D. variabilis [%]: 100

Okay, now this molecule:
Note to self: Percent control D. variabilis recorded for `CO[C@H]1C[C@H](O[C@@H]2/C(C)=C/C[C@@H]3C[C@@H](C[C@]4(CC[C@H](C)[C@@H](C5CCCCC5)O4)O3)OC(=O)[C@@H]3C=C(C)/C(=N/O)[C@H]4OC/C(=C\C=C\[C@@H]2C)[C@]43O)O[C@@H](C)[C@@H]1O` was 32.7
